target or test system: rat TRPM8 channel (Rattus norvegicus, UniProt Q8R455)
Construct: expressed in transfected cells; host or cells: HEK293 (stably transfected)
Sequence (Q8R455 whole entry): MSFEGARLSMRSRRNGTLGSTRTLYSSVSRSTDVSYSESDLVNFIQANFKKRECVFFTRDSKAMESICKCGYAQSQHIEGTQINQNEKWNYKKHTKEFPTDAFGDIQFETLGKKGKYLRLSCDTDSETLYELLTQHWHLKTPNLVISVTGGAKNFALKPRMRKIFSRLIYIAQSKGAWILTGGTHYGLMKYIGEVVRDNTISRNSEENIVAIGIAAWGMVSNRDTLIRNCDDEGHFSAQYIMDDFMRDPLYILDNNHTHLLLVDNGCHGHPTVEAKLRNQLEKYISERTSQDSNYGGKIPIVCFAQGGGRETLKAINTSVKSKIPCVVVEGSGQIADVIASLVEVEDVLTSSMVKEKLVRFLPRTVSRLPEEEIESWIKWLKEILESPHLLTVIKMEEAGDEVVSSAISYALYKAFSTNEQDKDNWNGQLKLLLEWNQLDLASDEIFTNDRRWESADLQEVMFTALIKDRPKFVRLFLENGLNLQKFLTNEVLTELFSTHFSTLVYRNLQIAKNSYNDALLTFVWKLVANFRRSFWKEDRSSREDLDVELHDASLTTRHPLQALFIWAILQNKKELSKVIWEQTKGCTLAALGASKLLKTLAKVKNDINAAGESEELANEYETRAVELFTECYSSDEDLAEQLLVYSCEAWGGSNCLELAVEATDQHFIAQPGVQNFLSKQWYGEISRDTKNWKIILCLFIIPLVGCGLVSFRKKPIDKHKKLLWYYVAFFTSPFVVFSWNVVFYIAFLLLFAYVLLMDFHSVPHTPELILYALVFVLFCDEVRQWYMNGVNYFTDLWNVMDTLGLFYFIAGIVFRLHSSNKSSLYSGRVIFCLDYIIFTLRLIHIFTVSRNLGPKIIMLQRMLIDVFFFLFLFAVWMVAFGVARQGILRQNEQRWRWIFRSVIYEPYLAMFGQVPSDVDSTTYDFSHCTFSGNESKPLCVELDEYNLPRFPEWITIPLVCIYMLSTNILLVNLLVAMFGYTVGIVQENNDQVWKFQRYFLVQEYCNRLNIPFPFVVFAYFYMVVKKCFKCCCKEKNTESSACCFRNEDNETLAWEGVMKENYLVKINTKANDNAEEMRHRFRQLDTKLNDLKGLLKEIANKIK
procedure details: Ca2+ microfluorometry, menthol-induced Ca2+ influx in HEK293 cells expressing rat TRPM8
Type: cell-based
condition label: 5 µM compound; 100 µM menthol; HEK-rTRPM8
Examples of compounds with documented % Blockade 5 µM follow.
quantity: % Blockade 5 µM (%)

INSERT INTO assay_data (compound, data_value) VALUES
  ('COC(=O)C(Cc1ccccc1)N1C[C@H](Cc2ccccc2)N(C(=O)OCc2ccccc2)CC1=O (stereo partly shown) [Compound 20ab]', 22.3),
  ('CC(C(=O)OCc1ccccc1)N1CC(Cc2ccccc2)N(C(=O)OCc2ccccc2)CC1=O (stereo not shown) [Compound 38ab]', 66.0),
  ('O=C(N[C@@H](Cc1ccccc1)CN1C(=O)CC1(Cc1ccccc1)C(=O)OCc1ccccc1)OCc1ccccc1 (stereo partly shown) [Compound 12ab]', 92.3),
  ('CC1C(=O)N(C[C@H](Cc2ccccc2)NC(=O)OCc2ccccc2)[C@@]1(Cc1ccccc1)C(=O)OCc1ccccc1 (stereo partly shown) [Compound 25ab]', 68.2);

* * *

System: A549 (lung carcinoma, NSCLC)
procedure details: SRB cytotoxicity assay, A549
Assay type: cell-based
condition label: 72 h, SRB; total growth inhibition; unit inferred
Structures can show the parent of a compound that is named as a salt.
Examples of compounds with documented TGI A549 follow.
quantity: TGI A549

INSERT INTO measurements (compound, quantity, data_value) VALUES
  ('C[C@@H]1C(=O)N(C(Cc2ccccc2)C(=O)OCc2ccccc2)C[C@@H](Cc2ccccc2)N1C(=O)OCc1ccccc1 (stereo partly drawn) [Compound 30ab]', 'TGI A549', '> 17.3 µM'),
  ('O=C(OCc1ccccc1)C(Cc1ccccc1)N1C[C@@H](Cc2ccccc2)N(C(=O)OCc2ccccc2)CC1=O (stereo partly drawn) [Compound 15ab]', 'TGI A549', '> 17.8 µM'),
  ('COc1cccc2c1C(=O)c1c(O)c3c(c(O)c1C2=O)C[C@@](O)(C(=O)CO)C[C@@H]3O[C@H]1C[C@H](N)[C@H](O)[C@H](C)O1 [Doxorubicin.HCl, reference compound]', 'TGI A549', '0.64 µM'),
  ('O=C(OCc1ccccc1)C(Cc1ccccc1)N1C[C@H](Cc2ccccc2)N(C(=O)OCc2ccccc2)CC1=O (stereo partly drawn) [Compound 13ab]', 'TGI A549', '> 17.8 µM'),
  ('C[C@@H]1C(=O)N(C[C@H](Cc2ccccc2)NC(=O)OCc2ccccc2)[C@]1(Cc1ccccc1)C(=O)OCc1ccccc1 [Compound 24a]', 'TGI A549', '> 17.3 µM'),
  ('C[C@@H]1C(=O)N(C[C@@H](Cc2ccccc2)NC(=O)OCc2ccccc2)[C@]1(Cc1ccccc1)C(=O)OCc1ccccc1 [Compound 29a]', 'TGI A549', '> 17.3 µM');

* * *

Parameter GI50, tested on HT29 (colorectal adenocarcinoma), listed per item.
quantity: GI50

INSERT INTO assay_data (compound, target_or_test_system, data_value) VALUES
  ('C[C@@H]1C(=O)N(C[C@H](Cc2ccccc2)NC(=O)OCc2ccccc2)[C@]1(Cc1ccccc1)C(=O)OCc1ccccc1 [Compound 24a]', 'HT29 (colorectal adenocarcinoma)', '4.16 µM'),
  ('C[C@@H]1C(=O)N(C(Cc2ccccc2)C(=O)OCc2ccccc2)C[C@@H](Cc2ccccc2)N1C(=O)OCc1ccccc1 (stereo partly drawn) [Compound 30ab]', 'HT29 (colorectal adenocarcinoma)', '> 17.3 µM'),
  ('O=C(OCc1ccccc1)C(Cc1ccccc1)N1C[C@@H](Cc2ccccc2)N(C(=O)OCc2ccccc2)CC1=O (stereo partly drawn) [Compound 15ab]', 'HT29 (colorectal adenocarcinoma)', '> 17.8 µM');
